- measurement-target: DLG4_2, P78352
- Sequence (P78352 155-259): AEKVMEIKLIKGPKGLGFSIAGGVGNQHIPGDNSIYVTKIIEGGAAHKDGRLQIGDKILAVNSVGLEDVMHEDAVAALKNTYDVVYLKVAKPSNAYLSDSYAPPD
- assay-protocol: holdup assay
- Parameters: key: below the threshold = too weak to quantify, mostly under pKd 3.1 to 4
- condition-context: plain residues with an end cap or a label only (N-terminal biotin on a linker: ado-ado)
observation-type: pKd

Some binders with known pKd results, for comparison:
In [3]: df
Out[3]:
                         binder  observation_type   experimental_value
0  PGKKPEDSRV [SLCO2B1, O94956]               pKd                 3.91
1     VCMGDHWFDV [PRKN, O60260]               pKd  below the threshold
2    GNDPDRGTSI [GRID2, O43424]               pKd  below the threshold
3   TKEIPNCTSV [SORCS3, Q9UPU3]               pKd                 4.28

// next item, pKd requested
Record summary for RGKNRRQSIF [CDK18, Q07002] : reported pKd = 3.75
